Experiment: Cytotoxicity against human HepAD38 cells after 7 days by MTT assay
Format: cell-based
Rule: CC50 at 168 h below 100 µM gives true. Equal to or above 100 µM gives false.

| CHEM_SMILES | CLASSIFICATION |
| --- | --- |
| COc1ccc(Cc2nc(SCc3ccc([N+](=O)[O-])cc3)[nH]c(=O)c2I)cc1OC | false |
| COc1ccc(Cc2nc(SCc3ccc(C#N)cc3)[nH]c(=O)c2I)cc1OC | true |
| Nc1ccn([C@H]2CS[C@@H](CO)O2)c(=O)n1 | false |
| COc1ccc(Cc2nc(SCc3cccc(Cl)c3)[nH]c(=O)c2I)cc1OC | false |
| O=c1[nH]c(SCCOc2ccc([N+](=O)[O-])cc2)nc(Cn2nnc3ccccc32)c1I | true |

Input line: I'd appreciate it if you could check whether COc1cc(CSc2nc(Cn3nnc4ccccc43)c(I)c(=O)[nH]2)cc(OC)c1 has CC50 at 168 h smaller than 100 µM.
Output line: false

---

Assay: Selectivity index, ratio of CC50 for human HepAD38 cells to EC50 for Hepatitis B virus
Type: toxicity, cell-based
Settings: read-out: Ratio CC50/EC50
QUANTITY_NAME: selectivity ratio
Lab note: record the figure alone, no unit after it.

| CHEM_SMILES | selectivity ratio |
| --- | --- |
| O=c1[nH]c(SCCOc2ccc([N+](=O)[O-])cc2)nc(Cn2nnc3ccccc32)c1I | 111 |
| COc1ccc(Cc2nc(SCc3ccc([N+](=O)[O-])cc3)[nH]c(=O)c2I)cc1OC | 330 |
| COc1ccc(Cc2nc(SCc3ccc(C#N)cc3)[nH]c(=O)c2I)cc1OC | 19 |
| COc1cc(CSc2nc(Cn3nnc4ccccc43)c(I)c(=O)[nH]2)cc(OC)c1 | 12 |
| COc1ccc(Cc2nc(SCc3cccc(Cl)c3)[nH]c(=O)c2I)cc1OC | 27.8 |

Lab book: selectivity ratio of COc1ccc(Cc2nc(SC3CCCCCC3)[nH]c(=O)c2I)cc1OC noted as 2.4

Where these numbers come from: ChEMBL document CHEMBL3758143
